- measurement.notes: chemical genetic growth profiling, strain panel (AID 1159580);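 note: tested at 20 µM; growth read once vehicle control cultures reached saturation at 30 °C; 1 = growth at the plate median or of vehicle wells; lower values mean less growth of the strain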
- condition.details: S. cerevisiae deletion strains, growth OD, locus YER002W, strain NOP16, active compounds read low
In all, about 5,500 compounds went through this assay and about 2,000 (36%) were called active. Not shown: some 18% with an inconclusive outcome. This is one part of the list.
Binary label based on normalized growth with cut-off 1: below gives Condition met, not below gives Condition not met.

Task: Hello, I'm reviewing records and need to know if normalized growth of `CNC(=O)OCC[N+](C)(C)C` is below 1. Could you check?
Output: Condition met

Task: Hello, I'm reviewing records and need to know if normalized growth of `O=C(Nc1cccc(C(=O)Nc2ccc(S(=O)(=O)O)c3cc(S(=O)(=O)O)cc(S(=O)(=O)O)c23)c1)Nc1cccc(C(=O)Nc2ccc(S(=O)(=O)O)c3cc(S(=O)(=O)O)cc(S(=O)(=O)O)c23)c1` is below 1. Could you check?
Output: Condition met

Task: Hello, I'm reviewing records and need to know if normalized growth of `CCOC(=O)c1cnc2c(cnn2CC)c1NN=C(C)C` is below 1. Could you check?
Output: Condition met

Task: Hello, I'm reviewing records and need to know if normalized growth of CCN(CC)CC#CCOC(=O)C(O)(c1ccccc1)C1CCCCC1 (stereo not drawn) is below 1. Could you check?
Output: Condition not met

Task: Hello, I'm reviewing records and need to know if normalized growth of `CC(C)C[C@H](NC(=O)[C@H](O)[C@H](N)Cc1ccccc1)C(=O)O` is below 1. Could you check?
Output: Condition not met

Task: Hello, I'm reviewing records and need to know if normalized growth of `OC1(c2ccc(Cl)cc2)CCN(Cc2c[nH]c3ccccc23)CC1` is below 1. Could you check?
Output: Condition not met

Task: Hello, I'm reviewing records and need to know if normalized growth of `CN1CCc2cc(Cl)c(O)cc2[C@@H](c2ccccc2)C1` is below 1. Could you check?
Output: Condition not met

Task: Hello, I'm reviewing records and need to know if normalized growth of `COc1ccc2cc([C@H](C)C(=O)O)ccc2c1` is below 1. Could you check?
Output: Condition met

====

- measurement.notes: chemical genetic growth profiling, strain panel (AID 1159580);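 note: tested at 20 µM; growth read once vehicle control cultures reached saturation at 30 °C; 1 = growth at the plate median or of vehicle wells; lower values mean less growth of the strain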
- condition.details: S. cerevisiae deletion strains, growth OD, locus YDR335W, strain msn5, active compounds read low
In all, about 5,500 compounds went through this assay and about 2,000 (36%) were called active. Another 18% or so got no clear call; they are omitted. The list shows a part of the results.
I'd appreciate it if you could supply normalized growth values for the items below.
Give your answer as a number; write no unit.

Task: For the molecule shown here, `COc1cc(/C=C/C(=O)/C=C(O)/C=C/c2ccc(O)c(OC)c2)ccc1O` , give the reported normalized growth.
Output: 0.0992

Task: For the molecule shown here, `CC1=C(C/C=C(\C)CCC[C@H](C)CCC[C@H](C)CCCC(C)C)C(=O)c2ccccc2C1=O` , give the reported normalized growth.
Output: 0.99

Task: For the molecule shown here, `CC(=O)OC(C)(C)[C@@H]1Cc2cc3ccc(=O)oc3cc2O1` , give the reported normalized growth.
Output: 0.992

Task: For the molecule shown here, `CCC(=O)O[C@H]1[C@H](O[C@@H]2[C@@H](C)[C@H](O[C@H]3C[C@@](C)(OC)[C@@H](O)[C@H](C)O3)[C@@H](C)C(=O)O[C@H](CC)[C@@](C)(O)[C@H](O)[C@@H](C)C(=O)[C@H](C)C[C@@]2(C)O)O[C@H](C)C[C@@H]1N(C)C` , give the reported normalized growth.
Output: 0.877

Task: For the molecule shown here, `NC(=O)c1ccc[n+]([C@@H]2O[C@H](COP(=O)([O-])OP(=O)(O)OC[C@H]3O[C@@H](n4cnc5c(N)ncnc54)[C@H](O)[C@@H]3O)[C@@H](O)[C@H]2O)c1` , give the reported normalized growth.
Output: 1.05

Task: For the molecule shown here, `COc1cc(O)c(C(=O)/C=C/c2ccccc2)c(OC)c1` , give the reported normalized growth.
Output: 0.949

Task: For the molecule shown here, CCN(CCO)CCCC(C)Nc1ccnc2cc(Cl)ccc12 (configuration not stated) , give the reported normalized growth.
Output: 0.999

Task: For the molecule shown here, `CN(C)CC/C=C1\c2ccccc2Sc2ccc(Cl)cc21` , give the reported normalized growth.
Output: 0.96

Task: For the molecule shown here, N=c1ccn2c(n1)O[C@@H]1C2O[C@H](CO)[C@H]1O (some centres not stated) , give the reported normalized growth.
Output: 0.979

Task: For the molecule shown here, OCCN1C[C@@H](O)[C@@H](O)C(O)C1CO (some centres not stated) , give the reported normalized growth.
Output: 0.992

Task: For the molecule shown here, `COc1cc(O)c(C(=O)/C=C/c2ccc(O)c(OC)c2)c(OC)c1` , give the reported normalized growth.
Output: 0.973

Task: For the molecule shown here, `CC(C)c1c(C(=O)c2ccccc2)c(-c2ccccc2)c(-c2ccc(F)cc2)n1CC[C@@H](O)C[C@@H](O)CC(=O)O` , give the reported normalized growth.
Output: 0.919

Task: For the molecule shown here, CCN(CC)CCCC(C)Nc1ccnc2cc(Cl)ccc12 (configuration not stated) , give the reported normalized growth.
Output: 1.03

Task: For the molecule shown here, CC(CCc1ccccc1)NC(C)C(O)c1ccc(O)cc1 (configuration not stated) , give the reported normalized growth.
Output: 0.995

Task: For the molecule shown here, `CN1CCC(=C2c3ccccc3CCc3sccc32)CC1` , give the reported normalized growth.
Output: 0.949

Task: For the molecule shown here, NCC1CCC(C(=O)O)CC1 (configuration not stated) , give the reported normalized growth.
Output: 1

Task: For the molecule shown here, CCN(CC)CCCC(C)Nc1c2ccc(Cl)cc2nc2ccc(OC)cc12 (configuration not stated) , give the reported normalized growth.
Output: 1.02

Task: For the molecule shown here, CCCCCCCCNC(C)C(O)c1ccc(SC(C)C)cc1 (configuration not stated) , give the reported normalized growth.
Output: 0.0583

Task: For the molecule shown here, `COc1ccc2c(c1OC)C(=O)O[C@H]2[C@H]1c2cc3c(cc2CCN1C)OCO3` , give the reported normalized growth.
Output: 0.989

Task: For the molecule shown here, CC(=O)NC1SCCC1=O (configuration not stated) , give the reported normalized growth.
Output: 0.99

Task: For the molecule shown here, `CN[C@@H](C)[C@@H](O)c1ccccc1` , give the reported normalized growth.
Output: 1

Task: For the molecule shown here, `CN1CCC(=C2c3ccccc3Sc3ccccc32)CC1` , give the reported normalized growth.
Output: 1.02

====

- measurement.notes: chemical genetic growth profiling, strain panel (AID 1159580);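 note: tested at 20 µM; growth read once vehicle control cultures reached saturation at 30 °C; 1 = growth at the plate median or of vehicle wells; lower values mean less growth of the strain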
- condition.details: S. cerevisiae deletion strains, growth OD, locus YJL154C, strain vps35, active compounds read low
The whole screen tested about 5,500 compounds, of which about 2,000 (36%) were called active. Inconclusive results (about 18%) are left out. The list shows a part of the results.
attribute.measured: normalized growth
Give your answer as a number; write no unit.

Task: For the compound shown here, CCN(CCO)CCCC(C)Nc1ccnc2cc(Cl)ccc12 (stereo unspecified) , give the reported normalized growth.
Output: 1.01

Task: For the compound shown here, `COc1ccc2c(c1)OCc1c-2oc2cc(OC)ccc12` , give the reported normalized growth.
Output: 1

Task: For the compound shown here, `COc1ccc2c(c1OC)C(=O)O[C@H]2[C@H]1c2cc3c(cc2CCN1C)OCO3` , give the reported normalized growth.
Output: 0.997

Task: For the compound shown here, `CCCCNc1cc(C(=O)O)cc(S(N)(=O)=O)c1Oc1ccccc1` , give the reported normalized growth.
Output: 1

Task: For the compound shown here, CC(=O)NC1SCCC1=O (stereo unspecified) , give the reported normalized growth.
Output: 0.975

Task: For the compound shown here, `CN(C)C(=S)SSC(=S)N(C)C` , give the reported normalized growth.
Output: 0.0623

====

I'd appreciate it if you could supply normalized growth values for the items below.
- measurement.notes: chemical genetic growth profiling, strain panel (AID 1159580);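 note: tested at 20 µM; growth read once vehicle control cultures reached saturation at 30 °C; 1 = growth at the plate median or of vehicle wells; lower values mean less growth of the strain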
- condition.details: S. cerevisiae deletion strains, growth OD, locus YLR102C, strain apc9, active compounds read low
Hit rate of the full screen: of about 5,500 compounds, about 2,000 (36%) were called active. Not shown: some 18% with an inconclusive outcome. This is one part of the list.
Give your answer as a number; write no unit.

Task: For the molecule shown here, `COc1ccc2c(c1)OCc1c-2oc2cc(OC)ccc12` , give the reported normalized growth.
Output: 1.01

Task: For the molecule shown here, `Cc1cc(O)c(C=O)c(O)c1C(=O)O` , give the reported normalized growth.
Output: 1.01

Task: For the molecule shown here, `O=C1C=CC(=C(c2ccc(O)cc2)c2ccc(O)cc2)C=C1` , give the reported normalized growth.
Output: 0.994

Task: For the molecule shown here, `CC(C)OC(=O)C(C)(C)Oc1ccc(C(=O)c2ccc(Cl)cc2)cc1` , give the reported normalized growth.
Output: 0.988

Task: For the molecule shown here, CCC(C)C(=O)O[C@H]1[C@H](O)C2C(CN3CC(C)CCC3[C@@]2(C)O)C2C[C@]34O[C@]5(O)C(OC(=O)C(C)(O)C(C)O)CC[C@@]3(C)C5C(OC(C)=O)[C@@H](OC(C)=O)C4[C@@]21O (stereo partly drawn) , give the reported normalized growth.
Output: 1

Task: For the molecule shown here, CC(=O)OCC(=O)[C@H]1CCC2C3CCC4=CC(=O)CC[C@]4(C)C3CC[C@@]21C (stereo partly drawn) , give the reported normalized growth.
Output: 0.956

Task: For the molecule shown here, `COc1ccc2c(c1)O[C@@H]1COc3cc(OC)c(OC)cc3[C@@H]1C2=O` , give the reported normalized growth.
Output: 0.696

Task: For the molecule shown here, CC(=O)OCC(=O)[C@@]1(O)CCC2C3CCC4=CC(=O)CC[C@]4(C)C3C(=O)C[C@@]21C (stereo partly drawn) , give the reported normalized growth.
Output: 1.03

Task: For the molecule shown here, COc1cc2c(cc1OC)C1C(=O)c3c(O)cc4c(c3OC1CO2)C=CC(C)(C)O4 (stereo not drawn) , give the reported normalized growth.
Output: 1.02

Task: For the molecule shown here, `CCCCCCCCCCCCCCCC[N+](C)(C)C` , give the reported normalized growth.
Output: 0.0605

Task: For the molecule shown here, `CC(=O)OCC[N+](C)(C)C` , give the reported normalized growth.
Output: 1.01

Task: For the molecule shown here, `CN(C)c1ccc(C(=C2C=CC(=[N+](C)C)C=C2)c2ccc(N(C)C)cc2)cc1` , give the reported normalized growth.
Output: 0.449

Task: For the molecule shown here, COc1cc2c(cc1OC)C1C(=O)c3c(OC)cc4c(c3OC1CO2)CCC(C)(C)O4 (stereo not drawn) , give the reported normalized growth.
Output: 0.992

Task: For the molecule shown here, `COc1cc(NS(=O)(=O)c2ccc(N)cc2)nc(OC)n1` , give the reported normalized growth.
Output: 0.985

Task: For the molecule shown here, `COc1ccc2c(c1OC)C(=O)O[C@H]2[C@H]1c2cc3c(cc2CCN1C)OCO3` , give the reported normalized growth.
Output: 1.01

Task: For the molecule shown here, CC(C[N+](C)(C)C)OC(N)=O (stereo not drawn) , give the reported normalized growth.
Output: 0.983

Task: For the molecule shown here, COCCc1ccc(OCC(O)CNC(C)C)cc1 (stereo not drawn) , give the reported normalized growth.
Output: 1.01

Task: For the molecule shown here, `CCCCNc1cc(C(=O)O)cc(S(N)(=O)=O)c1Oc1ccccc1` , give the reported normalized growth.
Output: 0.984

Task: For the molecule shown here, `COc1ccc2c(C)cc(=O)oc2c1` , give the reported normalized growth.
Output: 1.04

Task: For the molecule shown here, `CCOC(=O)c1c(C)cc(O)c(C)c1O` , give the reported normalized growth.
Output: 0.946

Task: For the molecule shown here, `COc1ccc2c(c1OC)C(=O)O[C@@H]2[C@H]1c2cc3c(cc2CCN1C)OCO3` , give the reported normalized growth.
Output: 1.01

Task: For the molecule shown here, `CC(=O)N[C@@H](CC(C)C)C(=O)O` , give the reported normalized growth.
Output: 0.988

Task: For the molecule shown here, COc1cc2c(cc1OC)C1C(=O)c3c(cc4c(c3O)C=CC(C)(C)O4)OC1CO2 (stereo not drawn) , give the reported normalized growth.
Output: 1.02
